- System: Rhizopus arrhizus
- run-description: Antimicrobial activity against Rhizopus arrhizus assessed as percent of susceptible isolates after 24 hrs
- Type: functional
I'd be grateful if you could share measured Activity for these entries.
Respond with a number, then the unit of measure.

Examples with answers:
>  <molecule>
OC(Cn1cncn1)(Cn1cncn1)c1ccc(F)cc1F

>  <system-name>
Rhizopus arrhizus

>  <Activity>
0%

$$$$
>  <molecule>
CC(=O)N1CCN(c2ccc(OCC3COC(Cn4ccnc4)(c4ccc(Cl)cc4Cl)O3)cc2)CC1 (stereo not drawn)

>  <system-name>
Rhizopus arrhizus

>  <Activity>
0%

$$$$
>  <molecule>
CC[C@@H]([C@H](C)O)n1ncn(-c2ccc(N3CCN(c4ccc(OC[C@@H]5CO[C@@](Cn6cncn6)(c6ccc(F)cc6F)C5)cc4)CC3)cc2)c1=O

>  <system-name>
Rhizopus arrhizus

>  <Activity>
64%

$$$$
>  <molecule>
C[C@@H]1[C@H](O)[C@@H](C)/C=C/C=C/C=C/C=C/C=C/C=C/C=C/[C@H](O[C@@H]2O[C@H](C)[C@@H](O)[C@H](N)[C@@H]2O)C[C@@H]2O[C@](O)(C[C@@H](O)C[C@@H](O)[C@H](O)CC[C@@H](O)C[C@@H](O)CC(=O)O[C@H]1C)C[C@H](O)[C@H]2C(=O)O

>  <system-name>
Rhizopus arrhizus

>  <Activity>
100%

$$$$
>  <molecule>
C[C@@H](c1ncncc1F)[C@](O)(Cn1cncn1)c1ccc(F)cc1F

>  <system-name>
Rhizopus arrhizus

>  <Activity>
0%

$$$$

Provide Activity values for the following items, in order.
1. CCC(C)n1ncn(-c2ccc(N3CCN(c4ccc(OC[C@H]5CO[C@](Cn6cncn6)(c6ccc(Cl)cc6Cl)O5)cc4)CC3)cc2)c1=O (stereo partly drawn)
2. Nc1nc(=O)[nH]cc1F
3. CC[C@H](C)C[C@H](C)CCCCCCCCC(=O)N[C@H]1C[C@@H](O)[C@@H](NCCN)NC(=O)[C@@H]2[C@@H](O)CCN2C(=O)[C@H]([C@H](O)CCN)NC(=O)[C@H]([C@H](O)[C@@H](O)c2ccc(O)cc2)NC(=O)[C@@H]2C[C@@H](O)CN2C(=O)[C@H]([C@@H](C)O)NC1=O

1: 50%; 2: 0%; 3: 0%

====

- Test system: Rhizopus
- run-description: Antimicrobial activity against Rhizopus sp. after 24 hrs
- Assay type: functional
I'd be grateful if you could share measured MIC50 for these entries.
Numbers only, in µg/mL.

Examples with answers:
>  <molecule>
C[C@@H]1[C@H](O)[C@@H](C)/C=C/C=C/C=C/C=C/C=C/C=C/C=C/[C@H](O[C@@H]2O[C@H](C)[C@@H](O)[C@H](N)[C@@H]2O)C[C@@H]2O[C@](O)(C[C@@H](O)C[C@@H](O)[C@H](O)CC[C@@H](O)C[C@@H](O)CC(=O)O[C@H]1C)C[C@H](O)[C@H]2C(=O)O [AMPHOTERICIN B]

>  <system-name>
Rhizopus

>  <result-unit>
µg/mL

>  <experimental-value>
0.25

$$$$
>  <molecule>
CC(=O)N1CCN(c2ccc(OCC3COC(Cn4ccnc4)(c4ccc(Cl)cc4Cl)O3)cc2)CC1 (configuration not stated) [KETOCONAZOLE]

>  <system-name>
Rhizopus

>  <result-unit>
µg/mL

>  <experimental-value>
1

$$$$
>  <molecule>
C[C@@H](c1ncncc1F)[C@](O)(Cn1cncn1)c1ccc(F)cc1F [VORICONAZOLE]

>  <system-name>
Rhizopus

>  <result-unit>
µg/mL

>  <experimental-value>
8

$$$$
>  <molecule>
CC[C@@H]([C@H](C)O)n1ncn(-c2ccc(N3CCN(c4ccc(OC[C@@H]5CO[C@@](Cn6cncn6)(c6ccc(F)cc6F)C5)cc4)CC3)cc2)c1=O [POSACONAZOLE]

>  <system-name>
Rhizopus

>  <result-unit>
µg/mL

>  <experimental-value>
0.25

$$$$

Checklist item: MIC50 tested on Rhizopus, entry CCC(C)n1ncn(-c2ccc(N3CCN(c4ccc(OC[C@H]5CO[C@](Cn6cncn6)(c6ccc(Cl)cc6Cl)O5)cc4)CC3)cc2)c1=O (some centres not stated) [ITRACONAZOLE] , value?
0.5

====

- Test system: Rhizopus microsporus var. rhizopodiformis
- run-description: Antimicrobial activity against Rhizopus microsporus var. rhizopodiformis assessed as percent of susceptible isolates after 24 hrs
- Format: functional
I'd be grateful if you could share measured Activity for these entries.
Numbers only, in %.

Examples with answers:
>  <molecule>
CC[C@@H]([C@H](C)O)n1ncn(-c2ccc(N3CCN(c4ccc(OC[C@@H]5CO[C@@](Cn6cncn6)(c6ccc(F)cc6F)C5)cc4)CC3)cc2)c1=O [POSACONAZOLE]

>  <result-unit>
%

>  <Activity>
78

$$$$
>  <molecule>
CCC(C)n1ncn(-c2ccc(N3CCN(c4ccc(OC[C@H]5CO[C@](Cn6cncn6)(c6ccc(Cl)cc6Cl)O5)cc4)CC3)cc2)c1=O (stereo partly drawn) [ITRACONAZOLE]

>  <result-unit>
%

>  <Activity>
60

$$$$
>  <molecule>
OC(Cn1cncn1)(Cn1cncn1)c1ccc(F)cc1F [FLUCONAZOLE]

>  <result-unit>
%

>  <Activity>
0

$$$$

Provide Activity values for the following items, in order.
1. C[C@@H](c1ncncc1F)[C@](O)(Cn1cncn1)c1ccc(F)cc1F [VORICONAZOLE]
2. CC(=O)N1CCN(c2ccc(OCC3COC(Cn4ccnc4)(c4ccc(Cl)cc4Cl)O3)cc2)CC1 (stereo not drawn) [KETOCONAZOLE]
3. C[C@@H]1[C@H](O)[C@@H](C)/C=C/C=C/C=C/C=C/C=C/C=C/C=C/[C@H](O[C@@H]2O[C@H](C)[C@@H](O)[C@H](N)[C@@H]2O)C[C@@H]2O[C@](O)(C[C@@H](O)C[C@@H](O)[C@H](O)CC[C@@H](O)C[C@@H](O)CC(=O)O[C@H]1C)C[C@H](O)[C@H]2C(=O)O [AMPHOTERICIN B]

1: 0; 2: 0; 3: 100

Provide Activity values for the following items, in order.
1. Nc1nc(=O)[nH]cc1F [FLUCYTOSINE]
2. CC[C@H](C)C[C@H](C)CCCCCCCCC(=O)N[C@H]1C[C@@H](O)[C@@H](NCCN)NC(=O)[C@@H]2[C@@H](O)CCN2C(=O)[C@H]([C@H](O)CCN)NC(=O)[C@H]([C@H](O)[C@@H](O)c2ccc(O)cc2)NC(=O)[C@@H]2C[C@@H](O)CN2C(=O)[C@H]([C@@H](C)O)NC1=O [CASPOFUNGIN]

[0, 0]

====

I'd be grateful if you could share measured Activity for these entries.
- Test system: Rhizopus
- run-description: Antimicrobial activity against Rhizopus sp. assessed as percent of susceptible isolates after 24 hrs
- Assay type: functional

>  <compound>
C[C@@H]1[C@H](O)[C@@H](C)/C=C/C=C/C=C/C=C/C=C/C=C/C=C/[C@H](O[C@@H]2O[C@H](C)[C@@H](O)[C@H](N)[C@@H]2O)C[C@@H]2O[C@](O)(C[C@@H](O)C[C@@H](O)[C@H](O)CC[C@@H](O)C[C@@H](O)CC(=O)O[C@H]1C)C[C@H](O)[C@H]2C(=O)O [AMPHOTERICIN B]

>  <Activity>
100%

$$$$
>  <compound>
OC(Cn1cncn1)(Cn1cncn1)c1ccc(F)cc1F [FLUCONAZOLE]

>  <Activity>
0%

$$$$
>  <compound>
CC[C@@H]([C@H](C)O)n1ncn(-c2ccc(N3CCN(c4ccc(OC[C@@H]5CO[C@@](Cn6cncn6)(c6ccc(F)cc6F)C5)cc4)CC3)cc2)c1=O [POSACONAZOLE]

>  <Activity>
80%

$$$$

Shifting focus to the compound that follows.
Fill in: Activity of CC[C@H](C)C[C@H](C)CCCCCCCCC(=O)N[C@H]1C[C@@H](O)[C@@H](NCCN)NC(=O)[C@@H]2[C@@H](O)CCN2C(=O)[C@H]([C@H](O)CCN)NC(=O)[C@H]([C@H](O)[C@@H](O)c2ccc(O)cc2)NC(=O)[C@@H]2C[C@@H](O)CN2C(=O)[C@H]([C@@H](C)O)NC1=O [CASPOFUNGIN] is ___
0%

====

- System: Lichtheimia corymbifera
- run-description: Antimicrobial activity against Absidia corymbifera assessed as percent of susceptible isolates after 24 hrs
- Format: functional
measurement-label: Activity (%)
Give bare numbers, in %.

>  <compound>
CCC(C)n1ncn(-c2ccc(N3CCN(c4ccc(OC[C@H]5CO[C@](Cn6cncn6)(c6ccc(Cl)cc6Cl)O5)cc4)CC3)cc2)c1=O (stereo not given in full)

>  <experimental-value>
100

$$$$
>  <compound>
C[C@@H](c1ncncc1F)[C@](O)(Cn1cncn1)c1ccc(F)cc1F

>  <experimental-value>
0

$$$$
>  <compound>
CC[C@H](C)C[C@H](C)CCCCCCCCC(=O)N[C@H]1C[C@@H](O)[C@@H](NCCN)NC(=O)[C@@H]2[C@@H](O)CCN2C(=O)[C@H]([C@H](O)CCN)NC(=O)[C@H]([C@H](O)[C@@H](O)c2ccc(O)cc2)NC(=O)[C@@H]2C[C@@H](O)CN2C(=O)[C@H]([C@@H](C)O)NC1=O

>  <experimental-value>
0

$$$$
>  <compound>
C[C@@H]1[C@H](O)[C@@H](C)/C=C/C=C/C=C/C=C/C=C/C=C/C=C/[C@H](O[C@@H]2O[C@H](C)[C@@H](O)[C@H](N)[C@@H]2O)C[C@@H]2O[C@](O)(C[C@@H](O)C[C@@H](O)[C@H](O)CC[C@@H](O)C[C@@H](O)CC(=O)O[C@H]1C)C[C@H](O)[C@H]2C(=O)O

>  <experimental-value>
100

$$$$

Shifting focus to the compound that follows.
Fill in: Activity of CC[C@@H]([C@H](C)O)n1ncn(-c2ccc(N3CCN(c4ccc(OC[C@@H]5CO[C@@](Cn6cncn6)(c6ccc(F)cc6F)C5)cc4)CC3)cc2)c1=O is ___
100

Reference source: ChEMBL document CHEMBL1150793
